observable: melting point

O=C(OC1CCCCC1C(C[N+](=O)[O-])c1ccc(Cl)cc1)c1ccc([N+](=O)[O-])cc1 (mixture of isomers); 146 to 148 °C

Look up and report measured melting point for this entry: COc1ccc(C(=O)Nc2ccc(N3CCC(NC[C@H](O)COc4cccc5[nH]c6ccccc6c45)CC3)cc2)cc1OC
183 to 191 °C

====

observable: melting point (°C)

Cc1cc2cc(Oc3ccccc3)cnc2cc1C; 224
CCOC(=O)c1ccc(NO)cc1; 72.5
CC(C)(C)OC(=O)CSc1cccc(-c2nc(=O)c3ccccc3s2)n1; 170
CCOC(=O)NOC(=O)c1ccc(C(=O)ONC(=O)OCC)cc1; 130
COCCOC(=O)COc1ccc(C(=O)[C@H](COC(C)(C)C)NC(=O)c2ccc(C(=N)NC(=O)OC(C)(C)C)cc2)cc1; 174

1: CS(=O)c1cc(-c2ccc(Oc3ccccc3)cc2)nn1C(N)=O (stereo unspecified)
2: CNC(=O)c1cccc(NC(=O)Cc2csc3ccccc23)c1
Among 1 and 2 , which shows a numerically higher melting point result? Please reply using the label of the selected record.
2
(2: 194 °C, 1: 92 °C)

Provenance of the data: a melting point compilation (Tetko et al.; mined from patent text by program, amines drawn as free bases though some values may be those of a salt)
